studyTarget: human β3 (Homo sapiens)
Construct: the full length human β3 gene was obtained from a human genomic library
assay: Human β3-agonist activities (cAMP in CHO cells transfected with human β3 gene)
reportedConditions: CHO cells expressing human β3; cAMP quantitated with EIA kit after 30 minutes; read-out: human β3-agonist activity (ED50)
pEC50: −log10 of the molar value. Structures can show the parent of a compound that is named as a salt.
propertyName: pEC50

Sample answers from the record:
molecule	pEC50
COCCOc1ccc2c(c1)[nH]c1cc(OCCNC[C@H](O)c3cccc(NS(C)(=O)=O)c3)ccc12 [Example 43, Hydrochloride]	9.16
CCN(c1ccc2c(c1)[nH]c1cc(OCCNC[C@H](O)c3cccc(NS(C)(=O)=O)c3)ccc12)S(C)(=O)=O.Cl [Example 33, Hydrochloride]	9.66

[A] CC(=O)Nc1ccc2c(c1)[nH]c1cc(OCCNC[C@H](O)c3cccc(NS(C)(=O)=O)c3)ccc12 [Example 8, Hydrochloride]
[B] CS(=O)(=O)Nc1cccc([C@@H](O)CNCCOc2ccc3c(c2)[nH]c2cc(O)ccc23)c1 [Example 2, Hydrochloride]
[C] CS(=O)(=O)Nc1cc([C@@H](O)CNCCOc2ccc3c(c2)[nH]c2cc(O)ccc23)ccc1Cl [Example 3, Hydrochloride]
# input Rank ascending by pEC50. Returns: the labels arranged in the requested order.
# output C, B, A
(C: 8.82, B: 9.10, A: 9.46)

----------
studyTarget: human β3 (Homo sapiens)
Construct: the full length human β3 gene was obtained from a human genomic library
assay: Human β3-agonist activities (cAMP in CHO cells transfected with human β3 gene)
reportedConditions: CHO cells expressing human β3; cAMP quantitated with EIA kit after 30 minutes; read-out: human β3-agonist activity (ED50)
pEC50: −log10 of the molar value. Counter-ions that a name gives are not always drawn.
propertyName: pEC50

The cases that follow already have their pEC50 on record.
compound	pEC50
CS(=O)(=O)Nc1cccc([C@@H](O)CNCCOc2ccc3c(c2)[nH]c2cc(OCC(=O)O)ccc23)c1 [Example 45]	8.59
CS(=O)(=O)Nc1cccc([C@@H](O)CNCCOc2ccc3c(c2)[nH]c2cc(N)ccc23)c1 [Example 9, Dihydrochloride]	9.00

[I] CS(=O)(=O)Nc1cccc([C@@H](O)CNCCOc2ccc3c(c2)[nH]c2cc(NS(C)(=O)=O)ccc23)c1 [Example 35, Hydrochloride]
[II] CC(C)(C)C(=O)Oc1ccc2c(c1)[nH]c1cc(OCCNCC(O)c3cccc(NS(C)(=O)=O)c3)ccc12 (stereo not shown) [Example 10]
# input // returns I or II , whichever has the lower pEC50 Your choice should be expressed through its label.
# output II

----------
studyTarget: human β3 (Homo sapiens, UniProt P13945)
Construct: the full length human β3 gene was obtained from a human genomic library; expressed in transfected cells; host or cells: CHO (Chinese hamster ovary) cells, pcDNA3 vector
Sequence (P13945 whole entry): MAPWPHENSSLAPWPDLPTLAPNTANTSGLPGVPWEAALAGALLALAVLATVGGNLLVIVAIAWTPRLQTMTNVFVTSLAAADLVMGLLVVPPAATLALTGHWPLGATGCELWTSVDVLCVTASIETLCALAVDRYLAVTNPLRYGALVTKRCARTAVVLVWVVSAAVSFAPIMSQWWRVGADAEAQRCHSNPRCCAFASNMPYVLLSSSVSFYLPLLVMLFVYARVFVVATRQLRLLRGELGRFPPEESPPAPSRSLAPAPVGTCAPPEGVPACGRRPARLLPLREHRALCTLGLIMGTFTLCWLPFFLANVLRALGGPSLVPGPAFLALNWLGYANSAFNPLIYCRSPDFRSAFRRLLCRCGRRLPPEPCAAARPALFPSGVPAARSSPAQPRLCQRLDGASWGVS
assay: Human β3-agonist activities (cAMP in CHO cells transfected with human β3 gene)
Type: cell-based
reportedConditions: CHO cells expressing human β3; cAMP; relative to Isoproterenol; read-out: intrinsic activity as compared with Isoproterenol
Structures can show the parent of a compound that is named as a salt.
propertyName: Emax (%)

compound	Emax / %
COCCOc1ccc2c(c1)[nH]c1cc(OCCNC[C@H](O)c3cccc(NS(C)(=O)=O)c3)ccc12 [Example 43, Hydrochloride]	114
CS(=O)(=O)Nc1cccc([C@@H](O)CNCCOc2ccc3c(c2)[nH]c2cc(O)ccc23)c1 [Example 2, Hydrochloride]	82
CS(=O)(=O)Nc1cc([C@@H](O)CNCCOc2ccc3c(c2)[nH]c2cc(O)ccc23)ccc1Cl [Example 3, Hydrochloride]	75
CS(=O)(=O)Nc1cccc([C@@H](O)CNCCOc2ccc3c(c2)[nH]c2cc(N)ccc23)c1 [Example 9, Dihydrochloride]	102
CS(=O)(=O)Nc1cccc([C@@H](O)CNCCOc2ccc3c(c2)[nH]c2cc(NS(C)(=O)=O)ccc23)c1 [Example 35, Hydrochloride]	96
CC(C)(C)C(=O)Oc1ccc2c(c1)[nH]c1cc(OCCNCC(O)c3cccc(NS(C)(=O)=O)c3)ccc12 (centres unmarked)	112

[1] CS(=O)(=O)Nc1cccc([C@@H](O)CNCCOc2ccc3c(c2)[nH]c2cc(OCC(=O)O)ccc23)c1
[2] CC(=O)Nc1ccc2c(c1)[nH]c1cc(OCCNC[C@H](O)c3cccc(NS(C)(=O)=O)c3)ccc12 [Example 8, Hydrochloride]
# input Would you kindly point out which of 1 and 2 has the smaller Emax figure? Give the chosen item's label as your response.
# output 2
(2: 47%, 1: 114%)

Numbers sourced from patent US20030040538A1.
